This collection of values is drawn from patent US7071359B1.

Test system: Mouse neuroblastoma Neuro2A cells
experiment description: Promotion activity on the neurite outgrowth (1): proportion of cells with extended neurite
Type: cell-based
assay setup: Example 56, 24 hours, 10 μM
value kind: Promotion activity on the neurite outgrowth (value relative to PGE1)
No unit in the answer, only the number.

Lookup: Looking for the measured Promotion activity on the neurite outgrowth (value relative to PGE1) of CCCC[C@](C)(O)C/C=C/[C@@H]1[C@H]2CC(CCCCCN(C)C)=C[C@H]2C[C@H]1O [Test compound E] , can you help?
Found: 1.58

Lookup: Moving on to the next compound: CCCC[C@](C)(O)C/C=C/[C@@H]1[C@H]2CC(CCCCC(=O)O)=C[C@H]2C[C@H]1O [Test compound B]
Found: 1.63

Lookup: Then this compound: Cc1cccc(C[C@@H](O)/C=C/[C@@H]2[C@H]3CC(CCCCCN4CCCC4)=C[C@H]3C[C@H]2O)c1 [Test compound C]
Found: 1.15

Lookup: Same question for CCCCC[C@H](O)/C=C/[C@H]1[C@H](O)CC(=O)[C@@H]1CCCCCCC(=O)O [PGE1] please.
Found: 1.00

Lookup: What would you report for Cc1cccc(C[C@H](O)/C=C/[C@@H]2[C@H]3CC(CCCCCN(C)C)=C[C@H]3C[C@H]2O)c1 [Test compound D] ?
Found: 1.31
